pKi: −log10 of the molar value.
// endpoint pKi / system human EP1 receptor (Homo sapiens, UniProt P34995)

Fill in: human EP1 receptor (Homo sapiens, UniProt P34995) pKi for CCc1nc2c(C)nc(C)cc2n1-c1ccc(CCNC(=O)NS(=O)(=O)c2ccc(C)cc2)cc1 [CJ‐023,423, reference compound] = < 4.64

Fill in: human EP1 receptor (Homo sapiens, UniProt P34995) pKi for C[C@H](NC(=O)c1cc(Cl)ccc1Oc1ccc(F)cc1)c1ccc(C(=O)O)cc1 [CJ‐042,794, reference compound] = < 4.57

* * *

Field: IC50. Provide a value for each of the molecules that follow.
systemUnderTest: Rat EP4 (Rattus norvegicus)
Sequence (P43114 whole entry): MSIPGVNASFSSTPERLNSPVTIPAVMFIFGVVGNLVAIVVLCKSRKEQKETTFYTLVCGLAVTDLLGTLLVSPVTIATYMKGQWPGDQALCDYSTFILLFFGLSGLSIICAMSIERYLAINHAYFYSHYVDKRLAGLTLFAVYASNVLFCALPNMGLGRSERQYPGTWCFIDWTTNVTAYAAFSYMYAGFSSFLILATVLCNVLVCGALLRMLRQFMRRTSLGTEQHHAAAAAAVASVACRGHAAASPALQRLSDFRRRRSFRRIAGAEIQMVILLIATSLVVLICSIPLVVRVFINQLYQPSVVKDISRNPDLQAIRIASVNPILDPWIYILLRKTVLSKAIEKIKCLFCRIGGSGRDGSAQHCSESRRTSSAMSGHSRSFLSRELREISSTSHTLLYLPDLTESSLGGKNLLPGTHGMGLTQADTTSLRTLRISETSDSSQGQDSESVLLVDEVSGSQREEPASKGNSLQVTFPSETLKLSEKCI
methodSummary: EP4 cAMP antagonist assay (HTRF), rat EP4
testConditions: read-out: cAMP Antagonism Rat EP4 IC50
Give the value in nM but do not write nM after it.

Cc1ccc(-c2cccc(CO)c2)nc1C(=O)Nc1c(C)ccc(C(=O)O)c1C [Compound 3] yielded IC50 of 1

C[C@H](NC(=O)[C@H]1CCCCN1CCOc1ccccc1)c1ccc(C(=O)O)cc1 [Compound 2] yielded IC50 of 15.4

C[C@H](NC(=O)c1cc(Cl)ccc1Oc1ccc(F)cc1)c1ccc(C(=O)O)cc1 [CJ‐042,794, reference compound] yielded IC50 of 20.6

CCc1nc2c(C)nc(C)cc2n1-c1ccc(CCNC(=O)NS(=O)(=O)c2ccc(C)cc2)cc1 [CJ‐023,423, reference compound] yielded IC50 of 13.1

Cc1ccc(N2CCC(O)CC2)nc1C(=O)Nc1c(C)cc(C(=O)O)cc1C [Compound 1] yielded IC50 of 12.3

* * *

systemUnderTest: Human EP4 (Homo sapiens, UniProt P35408)
Sequence (P35408 whole entry): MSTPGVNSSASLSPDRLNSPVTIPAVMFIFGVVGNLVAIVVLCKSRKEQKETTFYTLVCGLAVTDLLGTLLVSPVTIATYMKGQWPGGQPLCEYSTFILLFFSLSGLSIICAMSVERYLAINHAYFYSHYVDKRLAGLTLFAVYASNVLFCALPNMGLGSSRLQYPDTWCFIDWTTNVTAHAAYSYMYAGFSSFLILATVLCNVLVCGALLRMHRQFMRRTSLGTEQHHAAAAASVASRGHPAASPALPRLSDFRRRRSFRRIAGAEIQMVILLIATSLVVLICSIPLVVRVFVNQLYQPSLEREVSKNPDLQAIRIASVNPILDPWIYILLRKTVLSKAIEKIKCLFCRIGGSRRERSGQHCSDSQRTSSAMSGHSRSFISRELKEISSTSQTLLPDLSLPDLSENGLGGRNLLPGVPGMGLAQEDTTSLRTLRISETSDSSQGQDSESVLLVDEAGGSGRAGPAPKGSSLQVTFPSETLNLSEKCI
methodSummary: EP4 cAMP antagonist assay (HTRF), human EP4
Assay type: cell-based
testConditions: HEK293 cells stably expressing human EP4; PGE2 at EC80; geometric mean ± SEM; read-out: cAMP Antagonism (hEP4) Human EP4 IC50
reportedEndpoint: IC50 (nM)
Give the value in nM but do not write nM after it.

Cc1ccc(-c2cccc(CO)c2)nc1C(=O)Nc1c(C)ccc(C(=O)O)c1C yielded IC50 of 2.4

* * *

systemUnderTest: human EP3 receptor (Homo sapiens)
Sequence (P43115 1-359 limits assumed): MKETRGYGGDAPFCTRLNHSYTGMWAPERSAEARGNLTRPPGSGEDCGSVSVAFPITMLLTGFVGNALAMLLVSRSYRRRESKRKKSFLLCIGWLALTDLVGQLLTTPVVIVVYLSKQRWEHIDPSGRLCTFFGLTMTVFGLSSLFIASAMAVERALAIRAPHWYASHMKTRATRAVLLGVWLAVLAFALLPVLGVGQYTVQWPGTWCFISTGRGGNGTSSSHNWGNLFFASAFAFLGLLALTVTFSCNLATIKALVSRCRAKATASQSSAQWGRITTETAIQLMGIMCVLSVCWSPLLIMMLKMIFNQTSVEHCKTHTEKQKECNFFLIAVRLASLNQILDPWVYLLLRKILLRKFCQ
reportedEndpoint: Ki

C[C@H](NC(=O)[C@H]1CCCCN1CCOc1ccccc1)c1ccc(C(=O)O)cc1 [Compound 2] yielded Ki of > 14 µM

CCc1nc2c(C)nc(C)cc2n1-c1ccc(CCNC(=O)NS(=O)(=O)c2ccc(C)cc2)cc1 [CJ‐023,423, reference compound] yielded Ki of > 19.5 µM

C[C@H](NC(=O)c1cc(Cl)ccc1Oc1ccc(F)cc1)c1ccc(C(=O)O)cc1 [CJ‐042,794, reference compound] yielded Ki of > 15.5 µM

Cc1ccc(-c2cccc(CO)c2)nc1C(=O)Nc1c(C)ccc(C(=O)O)c1C [Compound 3] yielded Ki of > 14 µM

Data provenance is paper PMC5464344.
